Target: hLPAR1 (human lysophosphatidic acid receptor 1) (Homo sapiens)
Assay: FLIPR assay of intracellular calcium increase induced by activation of hLPAR1 expressed in CHO-K1 cells
Format: cell-based
Conditions: LPAR1 IC50 (μM), CHO-K1 cells expressing hLPAR1, agonist oleoyl-L-α-lysophosphatidic acid 1 μM
Item-by-item account of IC50

- molecule: "CN(C(=O)OCc1cnccc1-c1ccc(O[C@H]2CCC[C@H](C(=O)O)C2)cc1)C1CCCC1"
  IC50: "0.3 to 10 µM"
- molecule: "Cc1noc(-c2ccc(O[C@H]3CCC[C@H](C(=O)O)C3)cc2)c1OC(=O)N(C)C1CCCC1 (racemic)"
  IC50: "0.3 to 10 µM"

----------
Biological target: hLPAR1 (human lysophosphatidic acid receptor 1) (Homo sapiens, UniProt Q92633)
Sequence (Q92633 whole entry): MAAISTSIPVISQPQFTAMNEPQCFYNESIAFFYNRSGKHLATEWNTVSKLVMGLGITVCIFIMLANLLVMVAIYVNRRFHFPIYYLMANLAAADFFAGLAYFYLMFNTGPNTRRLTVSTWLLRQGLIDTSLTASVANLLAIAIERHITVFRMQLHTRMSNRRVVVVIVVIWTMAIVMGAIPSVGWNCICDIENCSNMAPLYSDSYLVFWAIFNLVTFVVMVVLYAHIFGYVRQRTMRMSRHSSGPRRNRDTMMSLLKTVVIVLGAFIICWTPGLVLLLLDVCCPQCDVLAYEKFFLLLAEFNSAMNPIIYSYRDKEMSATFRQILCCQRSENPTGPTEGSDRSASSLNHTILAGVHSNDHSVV
Experiment: FLIPR assay of intracellular calcium increase induced by activation of hLPAR1 expressed in CHO-K1 cells
Assay type: cell-based
Conditions: CHO-K1 cells expressing hLPAR1, agonist oleoyl-L-α-lysophosphatidic acid 1 μM; read-out: LPAR1 IC50
pIC50: −log10 of the molar value.

- compound: "Cc1nc(-c2onc(C)c2COC(=O)N(C)C2CCCC2)cnc1O[C@H]1CCC[C@H](C(=O)O)C1 (racemic) [Compound 90]"
  pIC50: "> 7.30"
- compound: "Cc1nc(-c2cnn(C)c2COC(=O)N2CC3CCC(C2)O3)ccc1O[C@H]1CCC[C@H](C(=O)O)C1 (racemic) [Compound 65]"
  pIC50: "5.00 to 6.52"
- compound: "Cc1snc(-c2ccc(O[C@H]3CCC[C@H](C(=O)O)C3)cc2)c1COC(=O)N(C)C1CCCC1 (racemic) [Compound 29]"
  pIC50: "> 7.30"
- compound: "CN(C(=O)OCc1c(-c2ccc(O[C@H]3CCC[C@H](C(=O)O)C3)c(C(F)(F)F)n2)ncn1C)C1CCCC1 (racemic) [Compound 32]"
  pIC50: "6.52 to 7.30"
- compound: "Cc1nc(-c2cnnc(C)c2COC(=O)N(C)C2CCCC2)ccc1O[C@H]1CCC[C@H](C(=O)O)C1 (racemic) [Compound 52]"
  pIC50: "> 7.30"
- compound: "Cc1ccn(-c2ccc(O[C@H]3CCC[C@H](C(=O)O)C3)cc2)c1N(C)C(=O)OC1CCCC1 (racemic) [Compound 71]"
  pIC50: "5.00 to 6.52"
- compound: "CN(C(=O)OCc1c(-c2ccc(O[C@H]3CCC[C@H](C(=O)O)C3)c(CO)n2)cnn1C)C1CCC1 (racemic) [Compound 116]"
  pIC50: "5.00 to 6.52"
- compound: "CN(C(=O)OCc1c(-c2ccc(O[C@H]3CCC[C@H](C(=O)O)C3)c(C#N)n2)cnn1C)C1CCC1 (racemic) [Compound 112]"
  pIC50: "6.52 to 7.30"
- compound: "CN(C(=O)OCc1c(-c2ccc(O[C@H]3CCC[C@H](C(=O)O)C3)c(C(F)F)n2)cnn1C)C1CCCC1 (racemic) [Compound 63]"
  pIC50: "> 7.30"
- compound: "Cc1nc(-c2c[nH]c(C)c2COC(=O)N(C)C2CCCC2)ccc1O[C@H]1CCC[C@H](C(=O)O)C1 (racemic) [Compound 41]"
  pIC50: "> 7.30"
- compound: "CN(C(=O)OCc1c(-c2ccc(O[C@H]3CCC[C@H](C(=O)O)C3)c(F)n2)cnn1C)C1CC1 (racemic) [Compound 108]"
  pIC50: "5.00 to 6.52"
- compound: "CN(C(=O)OCc1ocnc1-c1ccc(O[C@H]2CCC[C@H](C(=O)O)C2)cn1)C1CCCC1 (racemic) [Compound 14]"
  pIC50: "5.00 to 6.52"
- compound: "CN(Cc1ccccc1)C(=O)OCc1ocnc1-c1ccc(O[C@H]2CCC[C@H](C(=O)O)C2)cc1 (racemic) [Compound 1]"
  pIC50: "5.00 to 6.52"
